Entries and their measured apparent KD of MS2 coat protein follow.
# Test system: MS2 coat protein
# assay_remarks: apparent KD of MS2 coat protein; designed switch direction (-1 OFF switch, 1 ON switch): 1; higher = weaker reporter binding
# protocol_conditions: Eterna round: R95; input ligand: microRNA oligo, concentration not stated
Quick note: give the figure in nM, leave out the unit.

Take a look at these entries with their results.
{"columns": ["sequence", "apparent KD of MS2 coat protein / nM"],
 "data": [
  ["AAAGAACAUGAGGAUCACCCAUGUGGAAGAGGCACAGGAUAUCACCUCGCAAGUGCAAGGUGAGAAGGGUGAUGAU [Islaonen] (puzzle: Same State 1)", 425],
  ["GGAGCCGGCACCGAGGAUAUUCAUAUUAAAACAUGAGGAUCACCCAUGUAGAGGAGAACCUCUUGGGAGAAGGCGGAUCGGCUCG [Xeonanis - 26] (puzzle: Same State 2)", 723],
  ["UGUUAACAUGAGGAUCACCCAUGUCAAAUGAAUGCAGGAUAUGGGAAGUAAUAAGAUAAACCAGAAGGGCAAGUUG [Altered State 1-17 - Jieux - Same State 1] (puzzle: Same State 1)", 162],
  ["AACAAUCUAUCUGAGGAUAUCAUGAAAUAAACAUGAGGAUCACCCAUGUGCAGGAAAACUGCAUAUGAGAAGGCAGAUUGAUUGA [salish99_ss2_r3_054] (puzzle: Same State 2)", 2560]
]}

Then there is this sequence:
Hey, MS2 coat protein data for GUAUAACAUGAGGAUCACCCAUGUCAACAAAGUCGAGGAUAUGGGCAUAUAAUAUAUGAACCAGAAGGCGAAUAUG [Mat - Same State 1 - Mod of UCT - D36] (puzzle: Same State 1) : apparent KD of MS2 coat protein came out at 37.9

// data source = the supplement of paper PMC9170038
